B1: PKD2L1 (parent)
chain: VFIFYYVVEEILELHIHRLRYLSS

Variants of: B1
Experiment: protein stability index of a GFP-peptide fusion (GPS, HEK-293T) (PSI 1-6); higher = more stable;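 further: lentivirally expressed fusions sorted by FACS into six bins by GFP to DsRed ratio, PSI derived from sequencing read proportions per bin multiplied by bin number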
Conditions: c terminus: a fixed tail appended
measured-attribute: protein stability index
When you answer, write just the number.

Data request: protein stability index lookup needed for "H17I" , thanks.
Data returned: 2.97

Data request: protein stability index lookup needed for "Y21P" , thanks.
Data returned: 3.02

Data request: protein stability index lookup needed for "I16L" , thanks.
Data returned: 2.92

Data request: protein stability index lookup needed for "H15R" , thanks.
Data returned: 2.97

src = the supplement of paper PMC10567573
